biological target: human recombinant CB2 receptor (Homo sapiens); experiment: Forskolin-induced cAMP formation in CHO cells over-expressing hCB2; format: cell-based; design: expressed in transfected cells; host or cells: CHO cells (stably over-expressing)
Sequence (P34972 whole entry): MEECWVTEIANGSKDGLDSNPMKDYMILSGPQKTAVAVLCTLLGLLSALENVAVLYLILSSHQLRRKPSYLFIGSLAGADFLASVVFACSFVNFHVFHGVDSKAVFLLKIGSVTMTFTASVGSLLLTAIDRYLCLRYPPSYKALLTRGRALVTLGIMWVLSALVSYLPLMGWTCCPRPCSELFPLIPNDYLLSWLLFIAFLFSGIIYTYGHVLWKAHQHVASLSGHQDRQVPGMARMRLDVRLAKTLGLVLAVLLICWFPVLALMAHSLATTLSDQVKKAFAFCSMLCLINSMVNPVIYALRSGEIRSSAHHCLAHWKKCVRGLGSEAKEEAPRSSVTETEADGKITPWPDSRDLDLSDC
Measured endpoint: EC50

Requested field: EC50. Item: CCCCCc1cc(O)cc(OCCCCCCCCCCC(=O)NC2CC2)c1 [Compound 25] > 10 µM

* * *

Rule: fulfilled for melting point not less than 90 °C, not fulfilled for anything less.

CCCCCCc1ccc(O)cc1OCCCCCC(=O)Nc1ccc(O)cc1 fulfilled

Tell me whether melting point is at least 90 °C here: `CCCCCc1cc(O)cc(OCCCCCC(=O)Nc2ccc(O)cc2)c1` not fulfilled

Follow-up item: `CCCCCCc1ccc(O)cc1OCCCCCCCCCCCCCCCC(=O)Nc1ccc(O)cc1` not fulfilled

Follow-up item: `CCCCCCc1ccc(OCCCCCC(=O)Nc2ccc(O)cc2)cc1O` fulfilled

Follow-up item: `CCCCCCCCCCCCCCCc1cccc(OCCCCCCCCCCC(=O)Nc2ccc(O)cc2)c1` fulfilled

Follow-up item: `CCCCCCc1ccc(O)cc1OCCCCCCCCCCCCCCCC(=O)NC1CC1` not fulfilled

Follow-up item: `CCCCCCc1ccc(OCCCCCCCCCCC(=O)NCCO)cc1O` not fulfilled

Follow-up item: `CCCCCCc1ccc(OCCCCCCCCCCC(=O)Nc2ccc(O)cc2)cc1O` fulfilled
